Measured kcat/Km (mM^-1 · min^-1) accompanies every entry in the list below.
target: T1, Gly-Asp-Asp-Asp-Asp-Lys-β-naphthylamide
T1 chain: GDDDDK
Value kind: kcat/Km (mM^-1 · min^-1)

Protein	Value reported
Medaka EP-1 serine protease domain mutant P193E (protein) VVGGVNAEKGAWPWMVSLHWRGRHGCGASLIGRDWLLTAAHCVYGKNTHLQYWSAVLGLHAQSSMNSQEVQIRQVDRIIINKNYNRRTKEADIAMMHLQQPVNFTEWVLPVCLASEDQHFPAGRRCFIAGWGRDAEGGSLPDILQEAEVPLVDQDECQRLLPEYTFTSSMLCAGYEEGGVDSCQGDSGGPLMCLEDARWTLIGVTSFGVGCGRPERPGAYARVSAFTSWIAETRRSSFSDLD	730
Medaka EP-1 serine protease domain (wild-type) (protein) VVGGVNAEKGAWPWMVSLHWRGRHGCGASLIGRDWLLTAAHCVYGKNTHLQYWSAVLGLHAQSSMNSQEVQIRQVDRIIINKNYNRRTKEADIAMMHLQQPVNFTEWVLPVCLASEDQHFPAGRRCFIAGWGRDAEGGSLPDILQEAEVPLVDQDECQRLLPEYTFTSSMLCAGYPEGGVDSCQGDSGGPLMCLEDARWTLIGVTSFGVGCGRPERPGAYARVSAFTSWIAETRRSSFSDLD	1300
Bovine EP serine protease (New England Biolabs) (protein) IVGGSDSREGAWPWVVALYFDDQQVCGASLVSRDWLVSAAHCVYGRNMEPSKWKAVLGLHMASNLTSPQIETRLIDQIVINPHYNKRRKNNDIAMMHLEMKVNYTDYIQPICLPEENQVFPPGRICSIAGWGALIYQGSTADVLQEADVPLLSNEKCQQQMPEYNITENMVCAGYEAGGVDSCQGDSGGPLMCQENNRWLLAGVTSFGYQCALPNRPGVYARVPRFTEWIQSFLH	3000
Medaka EP-1 serine protease domain mutant E173A (protein) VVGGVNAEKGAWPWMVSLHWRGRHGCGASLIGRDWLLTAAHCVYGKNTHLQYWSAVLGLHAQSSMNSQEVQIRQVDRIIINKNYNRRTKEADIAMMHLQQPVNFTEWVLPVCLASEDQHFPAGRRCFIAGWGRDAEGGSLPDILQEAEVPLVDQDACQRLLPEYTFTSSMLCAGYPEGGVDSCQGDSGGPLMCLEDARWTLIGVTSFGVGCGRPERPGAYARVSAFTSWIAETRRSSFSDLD	1100
Medaka EP-1 serine protease domain mutant T105E (protein) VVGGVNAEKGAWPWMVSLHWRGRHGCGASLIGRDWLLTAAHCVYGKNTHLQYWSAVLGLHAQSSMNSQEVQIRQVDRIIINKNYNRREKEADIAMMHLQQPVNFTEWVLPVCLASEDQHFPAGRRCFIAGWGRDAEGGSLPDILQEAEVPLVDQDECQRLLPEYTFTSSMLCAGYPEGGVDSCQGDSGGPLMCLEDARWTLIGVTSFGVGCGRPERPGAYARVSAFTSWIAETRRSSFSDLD	650
